testTarget: Histidine--tRNA ligase (Leishmania infantum)
protocolDetails: Leishmania infantum Histidine tRNA synthetase (LdHisRS)
Type: functional
Parameters: scale not given: in the data most compounds retested in dose-response had high values
runParameters: 30 µM
About 420 (0.61%) of roughly 69,000 compounds showed an effect of 50% or more. What follows is part of a selection rich in strong results, with near analogues and random picks from the rest.
The reader will find reported Percent Effect values listed item by item below.
Answer in %, number only, no unit symbol.

Use these answered entries as a reference point.
[
  {
    "compound": "FC1(F)CCN(Cc2cccnc2)CC12CCN(c1ccccc1)C2 (stereo not given)",
    "uom": "%",
    "Percent Effect": 57.3
  },
  {
    "compound": "CN(C)C(=O)CN1C[C@@H]2CC[C@H](C1)N(Cc1cc(F)ccc1F)C2",
    "uom": "%",
    "Percent Effect": 1.91
  },
  {
    "compound": "O=C(c1ccccn1)N1CC[C@H]2[C@H]1CCN2S(=O)(=O)C1CC1",
    "uom": "%",
    "Percent Effect": 14
  },
  {
    "compound": "NC(=O)N1CC[C@@H]2O[C@@H](COCC(=O)N3CCCC3)CC[C@@H]21",
    "uom": "%",
    "Percent Effect": 0
  },
  {
    "compound": "CCN1C[C@H]2C3(CCN(S(C)(=O)=O)CC3)CC[C@@]2(C(=O)N(C)C)C1",
    "uom": "%",
    "Percent Effect": 12
  },
  {
    "compound": "CCC(=O)N(C)Cc1cccc(OC(C)C)c1",
    "uom": "%",
    "Percent Effect": 4.46
  },
  {
    "compound": "O=C(O)CN1CCC(F)(F)C2(CCN(c3ccccc3)C2)C1 (stereo not given)",
    "uom": "%",
    "Percent Effect": 53.9
  },
  {
    "compound": "CCC1=N[C@@]2(CC[C@@H]3CN(Cc4ccccc4C)C[C@@H]32)C(=O)N1C",
    "uom": "%",
    "Percent Effect": 10
  }
]

## Input Query the reported Percent Effect for Histidine--tRNA ligase (Leishmania infantum); item: Cc1ccc(N2CC[C@H]3C[C@H](C(=O)NCc4ccco4)O[C@H]3C2)nn1
## Output 18.1

## Input Query the reported Percent Effect for Histidine--tRNA ligase (Leishmania infantum); item: CC(C)Oc1cccc(CN(C)C(=O)Nc2cccn(C)c2=O)c1
## Output 13.9

====

testTarget: Histidine--tRNA ligase (Leishmania infantum) (UniProt A4I591)
Sequence (whole entry): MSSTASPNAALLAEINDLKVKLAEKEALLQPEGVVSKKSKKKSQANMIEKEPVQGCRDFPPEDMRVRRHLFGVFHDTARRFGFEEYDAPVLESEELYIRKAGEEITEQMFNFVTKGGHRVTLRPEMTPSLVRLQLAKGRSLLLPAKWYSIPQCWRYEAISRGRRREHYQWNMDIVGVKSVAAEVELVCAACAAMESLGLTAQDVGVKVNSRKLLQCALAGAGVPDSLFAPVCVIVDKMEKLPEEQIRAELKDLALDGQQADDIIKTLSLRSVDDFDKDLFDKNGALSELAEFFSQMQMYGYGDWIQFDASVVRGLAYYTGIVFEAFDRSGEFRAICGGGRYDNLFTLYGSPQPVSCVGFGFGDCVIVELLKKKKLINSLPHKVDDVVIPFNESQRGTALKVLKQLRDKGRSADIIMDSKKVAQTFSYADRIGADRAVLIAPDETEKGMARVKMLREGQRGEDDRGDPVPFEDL
protocolDetails: Leishmania infantum Histidine tRNA synthetase (LdHisRS)
Type: functional
Parameters: scale not given: in the data most compounds retested in dose-response had high values
runParameters: 30 µM
Out of some 69,000 compounds screened, about 420 (0.61%) showed an effect of 50% or more. What follows is part of a selection rich in strong results, with near analogues and random picks from the rest.
metricName: Percent Effect (%)
Answer in %, number only, no unit symbol.

Use these answered entries as a reference point.
[
  {
    "compound": "CN1CCN(C(=O)[C@H]2CC[C@@H]3[C@@H](CCN3Cc3nccs3)O2)CC1",
    "Percent Effect (%)": -10.1
  },
  {
    "compound": "CCCOCC1CCN(C(=O)Cn2ncc(N3CCCC3)cc2=O)C1 (stereo unspecified)",
    "Percent Effect (%)": -3.8
  },
  {
    "compound": "COCC(=O)N1CC[C@H]2C[C@@H](c3nnc(C4CC4)o3)O[C@@H]2C1",
    "Percent Effect (%)": 18.9
  }
]

## Input Query the reported Percent Effect for Histidine--tRNA ligase (Leishmania infantum) (UniProt A4I591); item: COc1ccccc1-c1ccccc1CC1(C(=O)O)CCNCC1
## Output 2.84

## Input Query the reported Percent Effect for Histidine--tRNA ligase (Leishmania infantum) (UniProt A4I591); item: Cc1ccc(C(=O)N(C2CC2)C2CC(=O)NC2=O)cc1F (stereo unspecified)
## Output 8.47

## Input Query the reported Percent Effect for Histidine--tRNA ligase (Leishmania infantum) (UniProt A4I591); item: COc1cccn(CC(=O)N2CCCC3(CCCO3)CC2)c1=O (stereo unspecified)
## Output 101

====

testTarget: Histidine--tRNA ligase (Leishmania infantum) (UniProt A4I591)
Sequence (whole entry): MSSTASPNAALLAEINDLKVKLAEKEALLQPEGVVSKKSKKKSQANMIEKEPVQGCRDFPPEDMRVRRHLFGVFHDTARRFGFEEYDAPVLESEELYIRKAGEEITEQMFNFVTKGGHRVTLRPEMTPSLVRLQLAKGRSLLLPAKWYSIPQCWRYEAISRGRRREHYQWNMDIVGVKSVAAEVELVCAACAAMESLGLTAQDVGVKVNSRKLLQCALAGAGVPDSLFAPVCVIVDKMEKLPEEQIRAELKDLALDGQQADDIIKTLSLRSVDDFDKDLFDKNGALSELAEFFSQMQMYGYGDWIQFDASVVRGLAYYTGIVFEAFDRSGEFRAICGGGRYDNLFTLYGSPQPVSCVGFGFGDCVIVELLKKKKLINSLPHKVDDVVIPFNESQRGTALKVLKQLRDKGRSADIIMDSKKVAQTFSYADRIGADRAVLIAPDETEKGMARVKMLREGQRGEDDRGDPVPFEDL
protocolDetails: Leishmania infantum Histidine tRNA synthetase (LdHisRS)
Format: functional
Design: scale not given: in the data most compounds retested in dose-response had high values
runParameters: 30 µM
Among all 69,000 compounds or so, about 420 (0.61%) showed an effect of 50% or more. Only a selection was taken, and strong results are over-represented in it overall.
metricName: Percent Effect (%)
Answer in %, number only, no unit symbol.

Use these answered entries as a reference point.
[
  {
    "compound": "COc1cc(-n2cc(CCO)cn2)ccc1NC(C)=O",
    "reading": 31.6
  },
  {
    "compound": "Cc1cc(C(=O)NCC(F)(F)F)c2c(C3CCCN3)noc2n1 (stereo unspecified)",
    "reading": 71.7
  },
  {
    "compound": "COc1ccc(-n2cc(CCO)cn2)cc1C",
    "reading": 69.6
  },
  {
    "compound": "Cc1cc(C(=O)NCC(C)C)c2c(C3CCCN3)noc2n1 (stereo unspecified)",
    "reading": 4.14
  }
]

## Input Query the reported Percent Effect for Histidine--tRNA ligase (Leishmania infantum) (UniProt A4I591); item: COc1ccc(-n2cc(CCO)cn2)cc1C(N)=O
## Output 34.2

## Input Query the reported Percent Effect for Histidine--tRNA ligase (Leishmania infantum) (UniProt A4I591); item: CN1[C@@H](C(=O)NCC2CC2)C[C@H]2CN(Cc3cccc(C#N)c3)C[C@H]21
## Output 17.4

====

testTarget: Histidine--tRNA ligase (Leishmania infantum) (UniProt A4I591)
Sequence (whole entry): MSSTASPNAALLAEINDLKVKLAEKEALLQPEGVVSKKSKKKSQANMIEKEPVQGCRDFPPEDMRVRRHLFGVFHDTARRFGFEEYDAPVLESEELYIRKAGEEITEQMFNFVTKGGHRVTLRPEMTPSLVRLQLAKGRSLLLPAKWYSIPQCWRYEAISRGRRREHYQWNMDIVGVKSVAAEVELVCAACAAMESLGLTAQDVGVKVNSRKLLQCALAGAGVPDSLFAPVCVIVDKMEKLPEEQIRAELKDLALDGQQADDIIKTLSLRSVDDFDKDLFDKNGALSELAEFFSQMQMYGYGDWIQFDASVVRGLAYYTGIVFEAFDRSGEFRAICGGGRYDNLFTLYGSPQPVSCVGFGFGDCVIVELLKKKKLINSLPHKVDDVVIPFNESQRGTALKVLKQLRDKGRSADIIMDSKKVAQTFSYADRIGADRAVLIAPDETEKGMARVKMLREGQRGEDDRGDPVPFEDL
protocolDetails: Leishmania infantum Histidine tRNA synthetase (LdHisRS)
Assay type: functional
Design: scale not given: in the data most compounds retested in dose-response had high values
runParameters: 30 µM
Among all 69,000 compounds or so, about 420 (0.61%) showed an effect of 50% or more. The sample as a whole holds a higher share of strong results than the screen did.
The reader will find reported Percent Effect values listed item by item below.
Answer in %, number only, no unit symbol.

[
  {
    "lineNotation": "COCCN1C(=O)CC[C@]12CC[C@@H](NC(=O)c1cnccn1)CC2",
    "testTarget": "Histidine--tRNA ligase (Leishmania infantum) (UniProt A4I591)",
    "uom": "%",
    "Percent Effect": -179
  },
  {
    "lineNotation": "CN(CCCOc1ccccc1Cl)C(=O)CN1C[C@@H]2CC[C@H](CC1=O)N2",
    "testTarget": "Histidine--tRNA ligase (Leishmania infantum) (UniProt A4I591)",
    "uom": "%",
    "Percent Effect": 17.7
  },
  {
    "lineNotation": "COc1cccn(CC(=O)N(C)CCOc2cc(C)cc(C)c2)c1=O",
    "testTarget": "Histidine--tRNA ligase (Leishmania infantum) (UniProt A4I591)",
    "uom": "%",
    "Percent Effect": 105
  },
  {
    "lineNotation": "CCCN(CCC)C(=O)c1cnn(C)c1C",
    "testTarget": "Histidine--tRNA ligase (Leishmania infantum) (UniProt A4I591)",
    "uom": "%",
    "Percent Effect": -4
  },
  {
    "lineNotation": "COCCN(C(=O)c1cnccn1)c1nc2c(s1)CCc1c-2cnn1C",
    "testTarget": "Histidine--tRNA ligase (Leishmania infantum) (UniProt A4I591)",
    "uom": "%",
    "Percent Effect": 51
  }
]

## Input Query the reported Percent Effect for Histidine--tRNA ligase (Leishmania infantum) (UniProt A4I591); item: CCN(CC)Cc1cn2c(n1)CN(C(=O)c1cnccn1)CC2
## Output 9.02
